test system: Candida albicans; assay: Growth inhibition of Candida albicans ATCC 10231 at 125 ug/ml incubated for 48 hrs under dark condition by broth microdilution method relative to control; format: functional; conditions: ATCC 10231, 48 h, read-out: GI
Property name: inhibition of growth at 125 µg/mL (%)
State the answer as a number, implicitly in %.

# input # lookup: inhibition of growth at 125 µg/mL of `Cc1ccc(C(=O)/C=C/c2cccc(Nc3ccnc4cc(Cl)ccc34)c2)cc1`
# output 53.1

# input And the next one, COc1ccc(C2=NN(C(C)=O)C(c3cccc(Nc4ccnc5cc(Cl)ccc45)c3)C2)cc1 (configuration not stated) ?
# output 33.4

# input // same read-out, input: O=CN1N=C(c2ccccc2)CC1c1cccc(Nc2ccnc3cc(Cl)ccc23)c1 (configuration not stated)
# output 16.9

# input # repeat for COc1ccc(C2=NN(c3cc(Cl)cc(Cl)c3)C(c3cccc(Nc4ccnc5cc(Cl)ccc45)c3)C2)cc1 (configuration not stated)
# output 10.3

# input Would you kindly repeat that for Clc1ccc(C2=NN(c3cc(Cl)cc(Cl)c3)C(c3cccc(Nc4ccnc5cc(Cl)ccc45)c3)C2)cc1 (configuration not stated) ?
# output 31.5

# input For Clc1cc(Cl)cc(N2N=C(c3ccccc3)CC2c2cccc(Nc3ccnc4cc(Cl)ccc34)c2)c1 (configuration not stated) then?
# output 2.17

# input Now consider COc1cc(C2=NN(c3ccc(Cl)cc3)C(c3cccc(Nc4ccnc5cc(Cl)ccc45)c3)C2)cc(OC)c1OC (configuration not stated) .
# output 16.7

----------
Listing of entries alongside the reported LC50.
system: U-937; assay: Cytotoxicity against human U937 cells after 72 hrs by MTT assay; assay type: cell-based; details: u-937, 72 h

Solved entries:
Compound | System under test | Property name | Assay value
COc1cc(C2=NN(C(C)=O)C(c3cccc(Nc4ccnc5cc(Cl)ccc45)c3)C2)cc(OC)c1OC (configuration not stated) | U-937 | LC50 | 5.1 mg/L
CC(=O)N1N=C(c2ccccc2)CC1c1cccc(Nc2ccnc3cc(Cl)ccc23)c1 (configuration not stated) | U-937 | LC50 | 5.8 mg/L
Cc1ccc(C2=NN(c3ccccc3)C(c3cccc(Nc4ccnc5cc(Cl)ccc45)c3)C2)cc1 (configuration not stated) | U-937 | LC50 | 1.4 mg/L
Clc1ccc(N2N=C(c3ccc(Br)cc3)CC2c2cccc(Nc3ccnc4cc(Cl)ccc34)c2)cc1 (configuration not stated) | U-937 | LC50 | 35.7 mg/L
Clc1ccc(C2=NN(c3cc(Cl)cc(Cl)c3)C(c3cccc(Nc4ccnc5cc(Cl)ccc45)c3)C2)cc1 (configuration not stated) | U-937 | LC50 | > 200 mg/L
COc1ccc(C2=NN(C(C)=O)C(c3cccc(Nc4ccnc5cc(Cl)ccc45)c3)C2)cc1 (configuration not stated) | U-937 | LC50 | 4.9 mg/L
O=Cc1cccc(Nc2ccnc3cc(Cl)ccc23)c1 | U-937 | LC50 | 0.6 mg/L
Clc1ccc(C2=NN(c3ccc(Cl)cc3)C(c3cccc(Nc4ccnc5cc(Cl)ccc45)c3)C2)cc1 (configuration not stated) | U-937 | LC50 | > 200 mg/L
COc1ccc(C2=NN(c3cc(Cl)cc(Cl)c3)C(c3cccc(Nc4ccnc5cc(Cl)ccc45)c3)C2)cc1 (configuration not stated) | U-937 | LC50 | > 200 mg/L
COc1cc(C2=NN(c3ccc(Cl)cc3)C(c3cccc(Nc4ccnc5cc(Cl)ccc45)c3)C2)cc(OC)c1OC (configuration not stated) | U-937 | LC50 | > 200 mg/L

# input Reported LC50, compound `Cc1ccc(C(=O)/C=C/c2cccc(Nc3ccnc4cc(Cl)ccc34)c2)cc1` : ____
# output 2 mg/L

# input And for Clc1ccc(N2N=C(c3ccccc3)CC2c2cccc(Nc3ccnc4cc(Cl)ccc34)c2)cc1 (configuration not stated) ?
# output > 200 mg/L

Origin of measurements: ChEMBL document CHEMBL4038284
